pIC50 values by entry
Molecular target: BCAT2 (Homo sapiens, UniProt O15382)
Sequence (O15382 28-392): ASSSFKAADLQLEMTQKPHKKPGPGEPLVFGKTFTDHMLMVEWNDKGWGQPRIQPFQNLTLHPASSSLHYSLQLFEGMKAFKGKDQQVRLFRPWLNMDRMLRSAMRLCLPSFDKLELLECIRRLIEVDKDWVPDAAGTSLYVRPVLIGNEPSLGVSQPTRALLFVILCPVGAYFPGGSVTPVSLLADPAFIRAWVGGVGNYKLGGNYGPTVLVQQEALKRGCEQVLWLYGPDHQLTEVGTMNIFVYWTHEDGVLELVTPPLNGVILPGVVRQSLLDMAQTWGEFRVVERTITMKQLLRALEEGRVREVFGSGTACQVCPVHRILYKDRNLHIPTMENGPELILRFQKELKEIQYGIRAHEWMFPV
Assay: BCAT2 in vitro cell inhibition using engineered A549 cells (KMV cell assay, 13C6-KMV by LC-MS/MS)
Type: cell-based
Set-up: The result was an engineered A549 cell line that expressed endogenous BCAT2; endogenous in cells; host or cells: A549 cells with MUT and BCAT1 knocked out by CRISPR/CAS9
Conditions: average where tested multiple times
pIC50: −log10 of the molar value.
parameter-measured: pIC50

[[record]]
molecule = "O=C(N[C@H]1CCC[C@@H](n2c(-c3ccccc3F)nc3cnc(-c4cn[nH]c4)cc32)C1)c1ncc(Cl)s1 [Example 81]"
result = "6.30 to 7.00"

[[record]]
molecule = "C#Cc1cnc(C(=O)N[C@H]2CCC[C@@H](n3c(-c4ncccc4C)nc4cnc(-n5nccn5)cc43)C2)s1 [Example 61]"
result = "≥ 7.00"

[[record]]
molecule = "CC(C)Cc1nc2cnc(-c3ncn(C)n3)cc2n1[C@@H]1CCC[C@H](NC(=O)c2ncc(Cl)s2)C1 [Example 358]"
result = "6.30 to 7.00"

[[record]]
molecule = "Cc1coc(-c2cc3c(cn2)nc(-c2ccccc2F)n3[C@H]2CCC[C@@H](NC(=O)c3ncc(Cl)s3)[C@@H]2O)n1 [Example 237]"
result = "6.00 to 6.30"

[[record]]
molecule = "O=C(N[C@H]1CCC[C@@H](n2c(-c3ccccc3F)nc3cnc(-c4ccccn4)cc32)C1)c1ncc(Cl)s1 [Example 104]"
result = "≥ 7.00"

[[record]]
molecule = "O=C(N[C@@H]1CCC[C@H](n2c(-c3ccccc3F)nc3cnc(-n4nccn4)cc32)[C@H]1O)c1ncc(Cl)s1 [Example 114]"
result = "6.30 to 7.00"

[[record]]
molecule = "O=C(N[C@H]1CCC[C@@H](n2c(-c3ccccn3)nc3cc(-n4ccnn4)ncc32)C1)c1ccc(Br)s1 [Example 152]"
result = "≥ 7.00"

[[record]]
molecule = "O=C(N[C@H]1CCC[C@@H](n2c(-c3ncccc3F)nc3cnc(-c4nc[nH]n4)cc32)C1)c1ncc(Cl)s1 [Example 175]"
result = "≥ 7.00"

[[record]]
molecule = "O=C(NC1CCCCC(n2c(-c3c(O)cccc3F)nc3cnc(-c4nc[nH]n4)cc32)C1O)c1ccc(Cl)s1 (stereo not drawn) [Example 403]"
result = "6.30 to 7.00"

[[record]]
molecule = "CC(C)Cc1nc2cnc(-n3nccn3)cc2n1[C@@H]1CCC[C@H](NC(=O)c2ccc(Cl)s2)[C@H]1O [Example 393]"
result = "≥ 7.00"

[[record]]
molecule = "CO[C@H]1C[C@H](NC(=O)c2ncc(Cl)s2)C[C@H](n2c(CC(C)C)nc3cnc(-c4nc(C)co4)cc32)C1 [Example 409]"
result = "6.30 to 7.00"

[[record]]
molecule = "O=C(N[C@@H]1CCCC[C@H](n2c(-c3ccccc3F)nc3cnc(-c4nc[nH]n4)cc32)[C@H]1O)c1ccc(Cl)s1 [Example 404]"
result = "6.00 to 6.30"

[[record]]
molecule = "Cc1cccnc1-c1nc2cnc(-n3nccn3)cc2n1[C@@H]1CCC[C@H](NC(=O)c2ncc(C(F)F)s2)C1 [Example 60]"
result = "6.30 to 7.00"

[[record]]
molecule = "O=C(N[C@H]1CCC[C@@H](n2c(-c3ccccn3)nc3cnc(-c4nc[nH]n4)cc32)C1)c1ncc(C(F)F)s1 [Example 53]"
result = "≥ 7.00"

[[record]]
molecule = "CN1C[C@H](NC(=O)c2ccc(Cl)s2)C[C@H](n2c(-c3ccccc3F)nc3cnc(-c4nc[nH]n4)cc32)C1 [Example 264]"
result = "≥ 7.00"

[[record]]
molecule = "CC(C)Cc1nc2cnc(-c3nc[nH]n3)cc2n1[C@@H]1CCC[C@H](NC(=O)c2ncc(Cl)s2)C1 [Example 86]"
result = "≥ 7.00"

[[record]]
molecule = "O=C(N[C@H]1CCC[C@@H](n2c(-c3ncccc3F)nc3cnc(-n4ccnn4)cc32)C1)c1ccc(Br)s1 [Example 12]"
result = "6.30 to 7.00"

[[record]]
molecule = "O=C(N[C@H]1CCC[C@@H](n2c(-c3c(O)cccc3F)nc3cnc(-n4nccn4)cc32)C1)c1ncc(Cl)s1 [Example 354]"
result = "≥ 7.00"

[[record]]
molecule = "O=C(NC1CCCC(n2c(-c3ccccn3)nc3cnc(-c4cnco4)cc32)C1)c1ccc(Br)s1 (stereo not drawn) [Example 3]"
result = "6.30 to 7.00"

[[record]]
molecule = "Cc1coc(-c2cc3c(cn2)nc(-c2ccccn2)n3[C@@H]2CCC[C@H](NC(=O)c3ccc(Br)s3)C2)n1 [Example 31]"
result = "≥ 7.00"

[[record]]
molecule = "O=C(N[C@@H]1C[C@@H](O)C[C@H](n2c(-c3ccccc3F)nc3cnc(-c4ccccn4)cc32)C1)c1ncc(Cl)s1 [Example 253]"
result = "6.30 to 7.00"

[[record]]
molecule = "O=C(N[C@H]1CCC[C@@H](n2c(-c3ccccc3F)nc3cnc(-c4ccn[nH]4)cc32)C1)c1ncc(C(F)F)s1 [Example 77]"
result = "≥ 7.00"

[[record]]
molecule = "CC(=O)N1C[C@H](NC(=O)c2ncc(C(F)F)s2)C[C@H](n2c(-c3ccccc3F)nc3cnc(-c4ncco4)cc32)C1 [Example 128]"
result = "≥ 7.00"

[[record]]
molecule = "Cc1coc(-c2cc3c(cn2)nc(-c2ccccc2F)n3C2CC(NC(=O)c3ncc(Cl)s3)CN(C)C2)n1 (stereo not drawn) [Example 130]"
result = "6.30 to 7.00"

[[record]]
molecule = "C#Cc1cnc(C(=O)N[C@H]2CCC[C@@H](n3c(-c4ccccc4F)nc4cnc(-c5ncco5)cc43)C2)s1 [Example 8]"
result = "≥ 7.00"

[[record]]
molecule = "CO[C@H]1C[C@@H](NC(=O)c2ncc(Cl)s2)C[C@@H](n2c(CC(C)C)nc3cnc(-c4nc[nH]n4)cc32)C1 (stereo in doubt) [Example 432]"
result = "≥ 7.00"

[[record]]
molecule = "O=C(NC1CNCC(n2c(-c3ncccc3F)nc3cnc(-n4nccn4)cc32)C1)c1ncc(C(F)F)s1 (stereo not drawn) [Example 125]"
result = "6.30 to 7.00"


All figures here come from patent US20260159512A1.
